- System: Pseudomonas aeruginosa strain ATCC 27853 (wild type)
- Measurement Notes: Chessboard technique: MICs alone and synergism of Cx1 combinations
- Assay type: cell-based
- Applied Conditions: antibiotic used alone; second figure of the cell; n = 4
The entries below are paired with their reported MIC (antibiotic).
Measured Property: MIC (antibiotic) (µg/mL)

compound="NCC[C@H](O)C(=O)N[C@@H]1C[C@H](N)[C@@H](O[C@H]2O[C@H](CN)[C@@H](O)[C@H](O)[C@H]2O)[C@H](O)[C@H]1O[C@H]1O[C@H](CO)[C@@H](O)[C@H](N)[C@H]1O [Amikacin]" value=0.5
compound="CC(C)(O/N=C(\\C(=O)N[C@@H]1C(=O)N2C(C(=O)[O-])=C(C[n+]3ccccc3)CS[C@H]12)c1csc(N)n1)C(=O)O [Ceftazidime]" value=4
compound="NC[C@H]1O[C@H](O[C@H]2[C@H](O)[C@@H](O[C@H]3O[C@H](CO)[C@@H](O)[C@H](N)[C@H]3O)[C@H](N)C[C@@H]2N)[C@H](N)C[C@@H]1O [Tobramycin]" value=0.5
compound="C[C@@H]1O[C@@H]1P(=O)(O)O [Fosfomycin]" value=16
compound="C[C@@H](O)[C@H]1C(=O)N2C(C(=O)O)=C(SCCN=CN)C[C@H]12 [Imipenem]" value=2
compound="CO[C@H]1/C=C/O[C@@]2(C)Oc3c(C)c(O)c4c(O)c(c(/C=N/N5CCN(C)CC5)c(O)c4c3C2=O)NC(=O)/C(C)=C\\C=C\\[C@H](C)[C@H](O)[C@@H](C)[C@@H](O)[C@@H](C)[C@H](OC(C)=O)[C@@H]1C [Rifampicin]" value=64

---

The entries below are paired with their reported MIC (antibiotic).
- System: Pseudomonas aeruginosa strain having a resistance to β-lactams (including the carbapenems), aminoglycosides, the trimethoprim-sulphamethoxazole combination and …
- Measurement Notes: Chessboard technique: MICs alone and synergism of Cx1 combinations
- Type: cell-based
- Applied Conditions: antibiotic used alone; second figure of the cell; n = 4
Measured Property: MIC (antibiotic) (mg/L)

compound_structure=C[C@@H]1O[C@@H]1P(=O)(O)O value_qualifier=> value=64
compound_structure=CC(C)(O/N=C(\C(=O)N[C@@H]1C(=O)N2C(C(=O)[O-])=C(C[n+]3ccccc3)CS[C@H]12)c1csc(N)n1)C(=O)O value_qualifier== value=16
compound_structure=NC[C@H]1O[C@H](O[C@H]2[C@H](O)[C@@H](O[C@H]3O[C@H](CO)[C@@H](O)[C@H](N)[C@H]3O)[C@H](N)C[C@@H]2N)[C@H](N)C[C@@H]1O value_qualifier== value=64
compound_structure=NCC[C@H](O)C(=O)N[C@@H]1C[C@H](N)[C@@H](O[C@H]2O[C@H](CN)[C@@H](O)[C@H](O)[C@H]2O)[C@H](O)[C@H]1O[C@H]1O[C@H](CO)[C@@H](O)[C@H](N)[C@H]1O value_qualifier== value=1
